normalized growth values, listed per item
Assay: chemical genetic growth profiling, strain panel (AID 1159580);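 note: tested at 20 µM; growth read once vehicle control cultures reached saturation at 30 °C; 1 = growth at the plate median or of vehicle wells; lower values mean less growth of the strain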
Conditions: S. cerevisiae deletion strains, growth OD, locus YOR136W, strain idh2, active compounds read low
Among all 5,500 compounds or so, about 2,000 (36%) were called active. Not shown: some 18% with an inconclusive outcome. This is one part of the list.
measurement type: normalized growth

| compound | measurement type | recorded number |
| --- | --- | --- |
| CCCCCCCCCCCCCCCCCC(=O)OC(CC(=O)O)C[N+](C)(C)C (stereo not drawn) | normalized growth | 0.773 |
| C[C@]12CCC3c4ccc(O)cc4CCC3C1C[C@@H](O)[C@@H]2O (stereo partly drawn) | normalized growth | 0.987 |
| CC1(C)O[C@H]2CC(=O)OC[C@]23[C@H]2CC[C@@]4(C)[C@H](c5ccoc5)OC(=O)[C@H]5O[C@]54[C@]2(C)C(=O)C[C@@H]13 | normalized growth | 0.985 |
| CC(C1OC(C)(C)C(O)C1O)[C@@H]1CC[C@]2(C)C3=CCC4C(C)(C)C(=O)CC[C@]4(C)C3CC[C@@]12C (stereo partly drawn) | normalized growth | 1.01 |
| CC1(C)C(=O)C=C[C@@]2(C)C1C[C@@H](O)[C@]1(C)C2CC[C@@]2(C)[C@H](c3ccoc3)OC(=O)[C@H]3O[C@]321 (stereo partly drawn) | normalized growth | 0.975 |
| CC(=O)O[C@@H]1CC(=O)[C@@]2(C)C(CC(=O)[C@]3(C)C2CC[C@@]2(C)[C@H](c4ccoc4)OC(=O)C4OC423)C1(C)C (stereo partly drawn) | normalized growth | 1.02 |
| CC1(C)C(=O)C=C[C@@]2(C)C1CC(=O)[C@]1(C)C2CC[C@@]2(C)[C@H](c3ccoc3)OC(=O)[C@H]3O[C@]321 (stereo partly drawn) | normalized growth | 1.01 |
| CN[C@@H]1C(O)[C@@H](O[C@@H]2[C@@H](O)[C@H](O[C@H]3OC(CN)=CC[C@H]3N)[C@@H](N)C[C@H]2N)OC[C@]1(C)O (stereo partly drawn) | normalized growth | 0.991 |
| CC(CC(O)C1OC1(C)C)[C@@H]1CCC2(C)C3=CCC4C(C)(C)C(=O)CCC4(C)C3CC[C@@]12C (stereo partly drawn) | normalized growth | 1.03 |
| CC1CCC2(OC1)OC1CC3C4CC[C@H]5C[C@@H](O)CC[C@]5(C)C4CC(=O)[C@]3(C)C1C2C (stereo partly drawn) | normalized growth | 0.995 |
| CCC1OC(=O)[C@H](C)C(=O)[C@H](C)[C@@H](OC2O[C@H](C)C[C@H](N(C)C)[C@H]2O)[C@](C)(OC)C2(CCCn3cnc(-c4cccnc4)c3)C[C@@H](C)C(=O)[C@H](C)[C@H]3N(C2)C(=O)O[C@]13C (stereo partly drawn) | normalized growth | 1.01 |
| COc1ccc2c(c1)CCC1C2CC[C@@]2(C)C1CC[C@@H]2O (stereo partly drawn) | normalized growth | 0.853 |
| CC(=O)OC(C)C[N+](C)(C)C (stereo not drawn) | normalized growth | 1.01 |
| NC(=NCCC[C@H](N)C(=O)O)N[N+](=O)[O-] | normalized growth | 0.997 |
| O=C(O[C@@H]1Cc2c(O)cc(O)cc2O[C@@H]1c1cc(O)c(=O)c2c(O)c(O)cc([C@H]3Oc4cc(O)cc(O)c4C[C@H]3OC(=O)c3cc(O)c(O)c(O)c3)c2c1)c1cc(O)c(O)c(O)c1 | normalized growth | 0.99 |
| CC(=O)O[C@@H]1CC2C(C)(C)C(=O)C=C[C@]2(C)C2CC[C@@]3(C)[C@H](c4ccoc4)OC(=O)[C@H]4O[C@]43[C@@]21C (stereo partly drawn) | normalized growth | 1.01 |
| C[C@]12CCC3c4ccc(OS(=O)(=O)O)cc4CCC3C1CC[C@H]2O (stereo partly drawn) | normalized growth | 0.988 |
| CC/C(=C(/CC)c1ccc(O)cc1)c1ccc(O)cc1 | normalized growth | 1.01 |
| CC1(C)C2CC(=O)[C@]3(C)C(CC[C@@]4(C)[C@H](c5ccoc5)OC(=O)[C@H]5O[C@]543)[C@@]2(C)C(=O)C[C@H]1O (stereo partly drawn) | normalized growth | 1.03 |
| COc1ccc2c(c1)CCC1C2CCC2(C)C1C[C@@H](O)C2O (stereo partly drawn) | normalized growth | 0.997 |
| COc1ccc(-c2cc(=O)c3c(O)cc(O[C@H]4O[C@H](CO[C@@H]5O[C@@H](C)[C@H](O)[C@@H](O)[C@H]5O)[C@@H](O)[C@H](O)[C@H]4O)cc3o2)cc1 | normalized growth | 1.03 |
| CC(=O)Oc1ccc2c(c1OC(C)=O)OCC1(O)Cc3c(cc(OC(C)=O)c(OC(C)=O)c3OC(C)=O)C21 (stereo not drawn) | normalized growth | 1.02 |
| CCOCN(C(=O)CCl)c1c(C)cccc1CC | normalized growth | 0.98 |
| CC12CCC3c4ccc(OCc5ccccc5)cc4CCC3C1C[C@@H](O)[C@@H]2O (stereo partly drawn) | normalized growth | 0.077 |
| C[C@@H]1CC[C@@]2(NC1)O[C@H]1C[C@H]3C4CC=C5C[C@@H](O)CC[C@]5(C)C4CC[C@]3(C)C1[C@@H]2C (stereo partly drawn) | normalized growth | 0.108 |
| C[C@@H]([C@H](O)c1ccccc1)N(C)C | normalized growth | 1 |
| CCC(c1ccc(O)cc1)C(CC)c1ccc(O)cc1 (stereo not drawn) | normalized growth | 0.996 |
| O=c1c(O)c(-c2cc(O)c(O)c(O)c2)oc2cc(O)cc(O)c12 | normalized growth | 1.03 |
| CC1CC[C@@]2(OC1)O[C@H]1CC3C4CC[C@@H]5CC(=O)CC[C@]5(C)C4CC[C@]3(C)[C@H]1[C@@H]2C (stereo partly drawn) | normalized growth | 0.992 |
| CNC(=O)Oc1cccc2c1OC(C)(C)O2 | normalized growth | 0.983 |
| CC(C)c1c(O)ccc2c1CCC1C(C)(C)CCC[C@]21C (stereo partly drawn) | normalized growth | 0.287 |
| CC1(C)C2CC(=O)[C@]3(C)C(CC[C@@]4(C)[C@H](c5ccoc5)OC(=O)C5OC543)[C@@]2(C)[C@@H](O)C[C@H]1O (stereo partly drawn) | normalized growth | 0.986 |
| COc1ccc2c(c1C(C)C)CCC1C(C)(C)C(=O)CCC21C (stereo not drawn) | normalized growth | 0.981 |
